Could you please report measured polymerase ribozyme fitness (log ratio) for the items listed next?
B1: TPR 5TU (parent)
chain: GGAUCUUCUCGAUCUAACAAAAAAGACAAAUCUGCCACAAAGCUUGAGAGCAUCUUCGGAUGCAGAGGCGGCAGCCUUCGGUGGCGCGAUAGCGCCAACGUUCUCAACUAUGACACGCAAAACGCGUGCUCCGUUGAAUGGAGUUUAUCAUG

Variants of: B1
Experiment: polymerase ribozyme fitness, log enrichment relative to wild type (log ratio); higher = more active; in vitro selection for triplet polymerase activity
Fewer inactive variants are shown than the library holds.
Numbers only.

// known answers, use as guide
mutations: G59C C85G
polymerase ribozyme fitness (log ratio): -1.64
--
mutations: A22C A52G A106C C118U A142G
polymerase ribozyme fitness (log ratio): -3.06

Dear colleague, could you send me polymerase ribozyme fitness (log ratio) for each of the items below? Thanks.
1. U4A A20C A28C A29G C87A G141U
2. A107G A121U
3. C8U C57U U61A G117A A121U U134C
4. G84A A119U
5. C32G U53C C76A

-4.08
-4.18
-4.09
-0.787
-4.09
